target: Serine/threonine-protein kinase 3 (Homo sapiens); experiment: Binding affinity to recombinant MST2 (unknown origin) assessed as change in melting temperature by DSF analysis
Sequence (Q13188 whole entry): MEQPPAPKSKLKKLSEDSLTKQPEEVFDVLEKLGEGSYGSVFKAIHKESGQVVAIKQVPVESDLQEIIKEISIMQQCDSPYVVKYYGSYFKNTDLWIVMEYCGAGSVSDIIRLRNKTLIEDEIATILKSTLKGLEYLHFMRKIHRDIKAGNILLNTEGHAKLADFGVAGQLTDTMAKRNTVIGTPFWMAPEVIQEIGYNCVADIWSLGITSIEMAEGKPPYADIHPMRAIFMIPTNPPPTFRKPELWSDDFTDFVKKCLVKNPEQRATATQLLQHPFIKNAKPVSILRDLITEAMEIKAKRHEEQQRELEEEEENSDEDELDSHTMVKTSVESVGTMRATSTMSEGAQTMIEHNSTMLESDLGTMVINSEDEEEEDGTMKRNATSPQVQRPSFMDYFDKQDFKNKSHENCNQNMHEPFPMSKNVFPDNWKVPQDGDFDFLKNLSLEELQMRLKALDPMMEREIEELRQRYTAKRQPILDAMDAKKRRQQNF
Property: ΔTm (°C)

Query Smiles: Cc1cccc(-c2ccc(-c3cc4cnc(Nc5ccc(O)cc5)nc4n(CCCCN)c3=O)c(Cl)c2)n1
ΔTm, °C: 13.7

Query Smiles: COc1cc(N2CCOCC2)ccc1Nc1ncc2cc(-c3ccc(-c4cccc(C)n4)cc3Cl)c(=O)n(CCCCN)c2n1
ΔTm, °C: 7.5

Query Smiles: Cc1cccc(-c2ccc(-c3cc4cnc(NCCCN5CCCC5=O)nc4n(CCCCN)c3=O)c(Cl)c2)n1
ΔTm, °C: 2.2

I = CNc1ncc2cc(-c3ccc(-c4cccc(C)n4)cc3Cl)c(=O)n(CCCN)c2n1
II = CNc1ncc2cc(-c3ccc(-c4cccc(C)n4)cc3Cl)c(=O)n(CCCCN)c2n1
Looking only at measured ΔTm, which entry is lower, I or II ? Please reply using the label of the selected record.
I

a = Cc1cccc(-c2ccc(-c3cc4cnc(Nc5ccc(C)c(O)c5)nc4n(CCCCN)c3=O)c(Cl)c2)n1
b = CNc1ncc2cc(-c3ccc(-c4cccc(C)n4)cc3Cl)c(=O)n(C)c2n1
Please state the entry with greater ΔTm among a and b . Please reply using the label of the selected record.
a
(a: 13.2 °C, b: 1.3 °C)

I = COc1cc(N2CCN(C)CC2)ccc1Nc1ncc2cc(-c3ccc(-c4cccc(C)n4)cc3Cl)c(=O)n(CCCCN)c2n1
II = CNc1ncc2cc(-c3ccc(-c4cccc(C)n4)cc3Cl)c(=O)n(CCCCCN)c2n1
Looking only at measured ΔTm, which entry is lower, I or II ? Please reply using the label of the selected record.
I

---

target: Serine/threonine-protein kinase 3 (Homo sapiens); assay: Inhibition of MST2 (unknown origin) expressed in HEK293T cells using NanoGlo as substrate incubated for 20 hrs by NanoBRET assay
pEC50: −log10 of the molar value.
Property: pEC50

In the examples that follow, each entry is paired with its recorded pEC50.
Query Smiles: CNc1ncc2cc(-c3ccc(-c4cccc(C)n4)cc3Cl)c(=O)n(CCCCCN)c2n1
Experimental Result: 5.60
//
Query Smiles: COc1cc(N2CCN(C)CC2)ccc1Nc1ncc2cc(-c3ccc(-c4cccc(C)n4)cc3Cl)c(=O)n(CCCCN)c2n1
Experimental Result: 4.77
//
Query Smiles: Cc1cccc(-c2ccc(-c3cc4cnc(Nc5ccc(F)c(CO)c5)nc4n(CCCCN)c3=O)c(Cl)c2)n1
Experimental Result: 6.74
//
Query Smiles: CNc1ncc2cc(-c3ccc(-c4cccc(C)n4)cc3Cl)c(=O)n(CCCOC)c2n1
Experimental Result: 5.03
//
Query Smiles: Cc1cccc(-c2ccc(-c3cc4cnc(Nc5ccc(O)cc5)nc4n(CCCCN)c3=O)c(Cl)c2)n1
Experimental Result: 6.43

1 = Cc1cccc(-c2ccc(-c3cc4cnc(NCCCN5CCCC5=O)nc4n(CCCCN)c3=O)c(Cl)c2)n1
2 = COc1cc(N2CCOCC2)ccc1Nc1ncc2cc(-c3ccc(-c4cccc(C)n4)cc3Cl)c(=O)n(CCCCN)c2n1
Please state the entry with greater pEC50 among 1 and 2 . Please reply using the label of the selected record.
2
(2: 5.51, 1: 4.77)

---

molecular target: Serine/threonine-protein kinase 26 (Homo sapiens); assay: Binding affinity to recombinant MST4 (unknown origin) assessed as change in melting temperature by DSF analysis
Sequence (Q9P289 2-416 limits assumed): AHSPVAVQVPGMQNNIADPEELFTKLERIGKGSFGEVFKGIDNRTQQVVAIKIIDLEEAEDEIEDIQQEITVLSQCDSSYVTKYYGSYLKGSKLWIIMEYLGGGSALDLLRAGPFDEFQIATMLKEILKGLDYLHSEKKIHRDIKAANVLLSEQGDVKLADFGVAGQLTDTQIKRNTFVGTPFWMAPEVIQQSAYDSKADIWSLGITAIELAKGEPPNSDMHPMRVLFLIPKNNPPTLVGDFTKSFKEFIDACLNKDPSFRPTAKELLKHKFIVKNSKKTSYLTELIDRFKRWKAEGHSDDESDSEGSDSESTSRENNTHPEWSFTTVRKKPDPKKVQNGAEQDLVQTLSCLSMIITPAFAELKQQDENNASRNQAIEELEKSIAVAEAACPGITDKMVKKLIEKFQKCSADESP
Property: ΔTm (°C)

In the examples that follow, each entry is paired with its recorded ΔTm.
Query Smiles: Cc1cccc(-c2ccc(-c3cc4cnc(NCCCc5ccc(N)cc5)nc4n(CCCCN)c3=O)c(Cl)c2)n1
ΔTm / °C: 9.7
//
Query Smiles: CNc1ncc2cc(-c3ccc(-c4cccc(C)n4)cc3Cl)c(=O)[nH]c2n1
ΔTm / °C: 0
//
Query Smiles: COc1ccc(O)c(Nc2ncc3cc(-c4ccc(-c5cccc(C)n5)cc4Cl)c(=O)n(CCCCN)c3n2)c1
ΔTm / °C: 8.3
//
Query Smiles: Cc1cccc(-c2ccc(-c3cc4cnc(NCCCN5CCOCC5)nc4n(CCCCN)c3=O)c(Cl)c2)n1
ΔTm / °C: 10.6
//
Query Smiles: Cc1cccc(-c2ccc(-c3cc4cnc(Nc5ccc(CCCO)cc5)nc4n(CCCCN)c3=O)c(Cl)c2)n1
ΔTm / °C: 15.3

a = CNc1ncc2cc(-c3ccc(-c4cccc(C)n4)cc3Cl)c(=O)n(CCCCO)c2n1
b = Cc1cccc(-c2ccc(-c3cc4cnc(NCCCN5CCCC5=O)nc4n(CCCCN)c3=O)c(Cl)c2)n1
Please state the entry with greater ΔTm among a and b . Please reply using the label of the selected record.
b
(b: 7.5 °C, a: 5 °C)

1 = CNc1ncc2cc(-c3ccc(-c4cccc(C)n4)cc3Cl)c(=O)n(CCCOC)c2n1
2 = CNc1ncc2cc(-c3ccc(-c4cccc(C)n4)cc3Cl)c(=O)n(CCCCN)c2n1
Please state the entry with greater ΔTm among 1 and 2 . Please reply using the label of the selected record.
2
